Target: T1, human calcitonin receptor (human, UniProt P30988 25-474)
T1 sequence (looked up): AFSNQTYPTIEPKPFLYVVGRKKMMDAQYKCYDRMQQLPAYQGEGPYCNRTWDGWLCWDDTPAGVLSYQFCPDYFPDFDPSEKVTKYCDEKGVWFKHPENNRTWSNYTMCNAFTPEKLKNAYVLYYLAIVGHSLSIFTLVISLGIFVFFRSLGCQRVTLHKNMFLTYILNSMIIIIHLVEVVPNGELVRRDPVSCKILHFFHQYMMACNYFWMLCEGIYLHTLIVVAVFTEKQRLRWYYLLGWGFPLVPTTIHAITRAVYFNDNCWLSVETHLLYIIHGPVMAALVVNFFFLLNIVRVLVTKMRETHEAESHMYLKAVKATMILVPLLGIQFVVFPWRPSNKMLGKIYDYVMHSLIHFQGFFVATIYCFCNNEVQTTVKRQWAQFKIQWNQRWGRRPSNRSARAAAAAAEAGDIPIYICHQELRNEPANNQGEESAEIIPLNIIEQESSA
Assay: cell-based or functional assay
Numbered stars: 1 amine (or outer) side, 2 acyl side, 3 side chain; on linkers, the order of the positions; unused ones are H or OH. Bridge positions count the residues as written; N and C are the ends. Side chains are listed from the residue outwards. Ends that are not written are not given here. * marks the point of attachment. C20 diacid = O=C(O)CCCCCCCCCCCCCCCCCCC(=O)*; γGlu = O=C(O)[C@H](CCC(=O)[*:2])N[*:1]; AEEA = NCCOCCOCC(=O)O
Reported Ratio hCT/hAmylin funct. by item:
Format: numeric value only, no unit, no commentary.

State its Ratio hCT/hAmylin funct. for this binder: K([AEEA-AEEA-γGlu-C20 diacid])CNTATCATQRLANFLRHSSPNFGAIPSSTNVGPNTY-NH2 (disulfide 2-7 (inferred), also called compound 98)
19.5

Kindly review the next binder as well.
Identify measured Ratio hCT/hAmylin funct. corresponding to K([γGlu-γGlu-C20 diacid])CNTATCATQRLAEFLRHSSPNFGAIPSSTNVGPRTY-NH2 (disulfide 2-7 (inferred), also called compound 110)
29.3

All values here come from patent US20140087995A1.
